target_system: Human Factor P (human, UniProt P27918 29-469)
Sequence (P27918 29-469 limits assumed): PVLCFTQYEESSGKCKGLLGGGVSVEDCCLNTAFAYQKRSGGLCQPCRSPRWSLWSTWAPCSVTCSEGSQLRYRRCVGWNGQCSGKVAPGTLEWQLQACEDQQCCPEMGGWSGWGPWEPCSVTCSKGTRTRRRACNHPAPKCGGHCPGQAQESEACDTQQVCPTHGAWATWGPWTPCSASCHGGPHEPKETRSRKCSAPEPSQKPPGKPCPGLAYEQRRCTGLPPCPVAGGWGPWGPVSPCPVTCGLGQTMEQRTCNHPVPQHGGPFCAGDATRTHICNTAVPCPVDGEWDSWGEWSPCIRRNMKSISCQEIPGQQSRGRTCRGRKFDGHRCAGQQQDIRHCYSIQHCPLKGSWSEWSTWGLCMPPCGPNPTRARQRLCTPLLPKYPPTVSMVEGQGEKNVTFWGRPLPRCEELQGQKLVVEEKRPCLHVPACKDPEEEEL
procedure_details: cell-based or functional assay
This section presents binders with their documented Hemolytic assay IC50 (nM), 10% serum values.
I only need the number, in nM, no unit after it.

Look over these answered cases.
binder | Hemolytic assay IC50 (nM), 10% serum
NVS966 (Fab, V domains shown, Disulfide-bridged Fab; also called Fab NVS966) VH: EVQLVQSGAEVKKPGESLKISCKGSGYSFTNYWIGWVRQMPGKGLEWMGRIDPGESLTNYAPSFQGQVTISADKSISTAYLQWSSLKASDTAMYYCARTGVADVDMPFAHWGQGTLVTVSS VL: SYVLTQPPSVSVAPGKTARISCSGDNLGSYYVNWYQQKPGQAPVLVIYGDSERPSGIPERFSGSNSGNTATLTISRAQAGDEADYYCGSWDITSFVFGGGTKLTVLG | 7.15
NVS965 (Fab, V domains shown, Disulfide-bridged Fab; also called Fab NVS965) VH: EVQLVQSGAEVKKPGSSVKVSCKASGGTFNSYAISWVRQAPGQGLEWMGRIIPIFGTANYAQKFQGRVTITADESTSTAYMELSSLRSEDTAVYYCARHGGYSFDSWGQGTLVTVSS VL: SYVLTQPPSVSVAPGKTARISCSGDNLGSKYVDWYQQKPGQAPVLVIYSDNNRPSGIPERFSGSNSGNTATLTISGTQAMDEADYYCATYDSSPRTEVFGGGTKLTVLG | 7.53

Attention now turns to another entry.
Problem: So what does the record say about Hemolytic assay IC50 (nM), 10% serum for NVS964 (Fab, V domains shown, Disulfide-bridged Fab; also called Fab NVS964) VH: EVQLVQSGAEVKKPGASVKVSCKASGYTFTSHYMHWVRQAPGQGLEWMGKINADLGDTNYAQKFQGRVTMTRDTSISTAYMELSSLRSEDTAVYYCARDGIEHGGHYYWGYLFDIWGQGTLVTVSS VL: SYELTQPPSVSVAPGQTARISCSGDSIREYYVHWYQQKPGQAPVLVIGDDTNRPSGIPERFSGSNSGNTATLTISGTQAEDEADYYCAAWDFSPAIVFGGGTKLTVLG ?
Result: 9.26
